- System name: PI3K-delta (Homo sapiens, UniProt O00329)
- Construct: Millipore 14-604
- Sequence (O00329 whole entry): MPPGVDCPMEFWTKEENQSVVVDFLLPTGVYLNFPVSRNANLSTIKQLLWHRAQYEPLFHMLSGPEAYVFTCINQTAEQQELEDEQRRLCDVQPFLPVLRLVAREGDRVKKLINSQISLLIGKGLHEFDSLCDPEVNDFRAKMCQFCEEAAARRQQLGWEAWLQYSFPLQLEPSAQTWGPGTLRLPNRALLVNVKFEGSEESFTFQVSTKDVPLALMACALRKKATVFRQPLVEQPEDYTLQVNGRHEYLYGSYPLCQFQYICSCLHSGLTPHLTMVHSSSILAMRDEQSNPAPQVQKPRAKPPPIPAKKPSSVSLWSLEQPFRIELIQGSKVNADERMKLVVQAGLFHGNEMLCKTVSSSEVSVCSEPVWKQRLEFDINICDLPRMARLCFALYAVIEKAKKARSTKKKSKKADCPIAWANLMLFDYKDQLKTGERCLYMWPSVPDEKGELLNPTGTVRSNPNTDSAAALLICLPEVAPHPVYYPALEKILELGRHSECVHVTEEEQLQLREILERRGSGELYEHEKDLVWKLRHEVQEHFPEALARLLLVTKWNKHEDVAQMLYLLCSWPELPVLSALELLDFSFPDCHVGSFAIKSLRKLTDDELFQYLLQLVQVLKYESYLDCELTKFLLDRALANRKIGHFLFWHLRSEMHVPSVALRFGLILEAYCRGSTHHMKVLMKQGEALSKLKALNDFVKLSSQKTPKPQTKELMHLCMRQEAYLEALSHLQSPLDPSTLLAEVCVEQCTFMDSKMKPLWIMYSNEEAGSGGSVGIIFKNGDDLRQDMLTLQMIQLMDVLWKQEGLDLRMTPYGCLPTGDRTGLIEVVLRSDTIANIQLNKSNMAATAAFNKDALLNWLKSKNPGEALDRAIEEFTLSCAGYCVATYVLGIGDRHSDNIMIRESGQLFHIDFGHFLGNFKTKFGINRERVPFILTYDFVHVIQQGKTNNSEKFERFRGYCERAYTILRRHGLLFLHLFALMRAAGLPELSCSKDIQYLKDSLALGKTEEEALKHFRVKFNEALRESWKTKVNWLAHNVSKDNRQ
- Sequence (P27986 whole entry partner): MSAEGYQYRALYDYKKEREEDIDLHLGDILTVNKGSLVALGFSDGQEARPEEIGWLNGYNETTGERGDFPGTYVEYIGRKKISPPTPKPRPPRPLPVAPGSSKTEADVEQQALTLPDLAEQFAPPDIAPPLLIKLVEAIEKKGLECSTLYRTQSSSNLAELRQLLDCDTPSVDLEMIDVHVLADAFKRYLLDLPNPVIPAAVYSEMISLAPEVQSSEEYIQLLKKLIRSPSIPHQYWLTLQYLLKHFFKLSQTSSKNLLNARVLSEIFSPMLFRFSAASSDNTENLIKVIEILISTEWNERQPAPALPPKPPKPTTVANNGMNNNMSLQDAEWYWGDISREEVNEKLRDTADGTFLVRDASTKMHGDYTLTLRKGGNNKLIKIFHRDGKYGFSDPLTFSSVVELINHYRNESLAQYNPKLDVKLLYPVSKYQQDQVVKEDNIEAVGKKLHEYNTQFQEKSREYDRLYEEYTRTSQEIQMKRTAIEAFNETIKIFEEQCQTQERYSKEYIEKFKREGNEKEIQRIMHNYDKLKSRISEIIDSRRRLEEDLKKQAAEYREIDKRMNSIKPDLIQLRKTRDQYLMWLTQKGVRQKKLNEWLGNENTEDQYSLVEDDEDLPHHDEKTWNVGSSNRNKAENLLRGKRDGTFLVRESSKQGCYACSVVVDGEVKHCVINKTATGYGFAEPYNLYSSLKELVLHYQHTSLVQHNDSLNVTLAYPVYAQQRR
- Test details: HTRF PI3K biochemical assay, delta isoform
- Condition info: form screened (neutral or TFA salt) given, read-out: PI3Kdelta IC50
Quick rule for you: IC50 under 20 nM gets 1, anything else gets -1.

INSERT INTO results (compound, class_label) VALUES
  ('CCn1c(-c2cnc(OC)c(C)c2)nc2c(N[C@H]3CCN(C(=O)C4CCOCC4)C3)ncnc21 [Compound 3A-4]', 1),
  ('CCn1c(CC2CC2)nc2c(N[C@H]3CCN(C(=O)C4CC4)C3)ncnc21 [Compound 7-1]', -1),
  ('CCn1c(-c2cnc(C)nc2)nc2c(NC3CN(C(=O)C4CC4)CC34CC4)ncnc21 (racemic) [Compound 3-17]', 1),
  ('CCn1c(-c2cnc(C)nc2)nc2c(NC3CCN(C(=O)c4cnco4)C3)ncnc21 (stereo in doubt) [Compound 2-76]', 1),
  ('CCn1c(-c2cnc(C)nc2)nc2c(N[C@H]3CCN(C(=O)OCC(F)(F)F)C3)ncnc21 [Compound 13-1]', -1),
  ('CCn1c(-c2cnc(C)nc2)nc2c(N[C@H]3CCN(C(=O)N4CCC(C)(C)C4)C3)ncnc21 [Compound 12-11]', 1),
  ('CCn1ncc(-c2nc3c(N[C@H]4CCN(C(=O)OC(C)(C)C)C4)ncnc3n2C)c1C [Compound 1-2]', 1),
  ('CCC(=O)N1CC[C@H](Nc2ncnc3c2nc(-c2ccc(OC)nc2)n3C)C1 [Compound 3-31]', 1),
  ('CCn1c(-c2cnc(C)nc2)nc2c(NC3CN(C(=O)C4CC4)CC3F)ncnc21 (racemic) [Compound 3-26]', -1);
